# PROTOCOL: Cmax in Wistar rat plasma at 10 mg/kg, po
# Type: ADME, organism-based
# Set-up: dose 10 mg/kg, route oral
MEASURED PARAMETER: Cmax

# input # Cmax lookup, item CC(=O)N[C@@H](C)CCc1ccc(Oc2ccc(OC(C)C)nc2)cc1
# output 3.5 µM

====

# PROTOCOL: AUC (0 to infinity) in Wistar rat plasma at 10 mg/kg, po
# Assay type: ADME, organism-based
# Set-up: time infinity, dose 10 mg/kg, route oral
MEASURED PARAMETER: AUC(0-inf) (µM·h)
Number only, in µM·h; omit the unit.

# input # AUC(0-inf) lookup, item CC(=O)N[C@@H](C)CCc1ccc(Oc2ccc(OC(C)C)nc2)cc1
# output 19

====

# PROTOCOL: Drug concentration in Wistar rat liver at 10 mg/kg, po measured 6 hrs post dose
# Type: ADME, organism-based
# Set-up: dose 10 mg/kg, route oral
# ASSAY SETUP: read-out: Drug uptake
MEASURED PARAMETER: concentration at 6 h (µM)
Number only, in µM; omit the unit.

# input # concentration at 6 h lookup, item CC(=O)N[C@@H](C)CCc1ccc(Oc2ccc(OC(C)C)nc2)cc1
# output 7.59

====

# ASSAY TARGET: Acetyl-CoA carboxylase 1 (Rattus norvegicus, UniProt P11497)
# PROTOCOL: Inhibition of N-terminal His-tagged rat recombinant ACC1 expressed in high five insect cells by ATP consumption assay
Examples of molecules with documented IC50 follow.
Number only, in µM; omit the unit.

// below: answered molecules
MOLECULE	IC50 / µM
COC(=O)NC(C)CCc1ccc(Oc2ccc(OC(C)C)nc2)cc1 (stereo unspecified)	2.9
CC(C)Oc1ccc(Oc2ccc(CC[C@H](C)NC(=O)C3CC3)cc2)cn1	0.8
CC(=O)NC(C)CCc1ccc(Oc2cnc(OC(C)C)nc2)cc1 (stereo unspecified)	7.4
CC(CCc1ccc(Oc2ccc(OC(C)C)nc2)cc1)NC(=O)C1CC1 (stereo unspecified)	3.2

# input # IC50 lookup, item CC(=O)NCCC[C@H]1OC[C@H](Oc2ccc(OC3CCCC3)cc2)CO1
# output 13

# input Same question, CC(=O)NC(C)CCc1ccc(Oc2ccc(OC3CCCC3)cn2)cc1 (stereo unspecified) this time
# output 2.9

# input Same question, CC(=O)NC(C)CCc1ccc(Oc2ccc(OC(C)C)cn2)cc1 (stereo unspecified) this time
# output 2.6

====

# PROTOCOL: Half life in Wistar rat plasma at 10 mg/kg, po
# Type: ADME, organism-based
# Set-up: dose 10 mg/kg, route oral
MEASURED PARAMETER: half-life (h)
Number only, in h; omit the unit.

# input # half-life lookup, item CC(=O)N[C@@H](C)CCc1ccc(Oc2ccc(OC(C)C)nc2)cc1
# output 1.8

====

# PROTOCOL: Clearance in Wistar rat plasma at 3 mg/kg, iv
# Type: ADME, organism-based
# Parameters: dose 3 mg/kg, route intravenous
MEASURED PARAMETER: clearance (mL/min/kg)
Number only, in mL/min/kg; omit the unit.

# input # clearance lookup, item CC(=O)N[C@@H](C)CCc1ccc(Oc2ccc(OC(C)C)nc2)cc1
# output 26.7

====

# PROTOCOL: Oral bioavailability in Wistar rat at 10 mg/kg
# Assay type: ADME, organism-based
# ASSAY SETUP: in vivo
MEASURED PARAMETER: bioavailability (%)
Number only, in %; omit the unit.

# input # bioavailability lookup, item CC(=O)N[C@@H](C)CCc1ccc(Oc2ccc(OC(C)C)nc2)cc1
# output 98

====

# PROTOCOL: Tmax in Wistar rat liver at 10 mg/kg, po
# Assay type: ADME, organism-based
# Design: dose 10 mg/kg, route oral
MEASURED PARAMETER: Tmax (h)
Number only, in h; omit the unit.

# input # Tmax lookup, item CC(=O)N[C@@H](C)CCc1ccc(Oc2ccc(OC(C)C)nc2)cc1
# output 2

====

# PROTOCOL: Half life in Wistar rat plasma at 3 mg/kg, iv
# Format: ADME, organism-based
# Set-up: dose 3 mg/kg, route intravenous
MEASURED PARAMETER: half-life
Returns: string containing the numeric result and its unit.

# input # half-life lookup, item CC(=O)N[C@@H](C)CCc1ccc(Oc2ccc(OC(C)C)nc2)cc1
# output 1.5 h

====

# PROTOCOL: Cmax in Wistar rat liver at 10 mg/kg, po
# Type: ADME, organism-based
# Design: dose 10 mg/kg, route oral
MEASURED PARAMETER: Cmax (µM)
Number only, in µM; omit the unit.

# input # Cmax lookup, item CC(=O)N[C@@H](C)CCc1ccc(Oc2ccc(OC(C)C)nc2)cc1
# output 21.8

====

# PROTOCOL: Drug concentration in Wistar rat plasma at 10 mg/kg, po measured 6 hrs post dose
# Format: ADME, organism-based
# Set-up: dose 10 mg/kg, route oral
# ASSAY SETUP: read-out: Drug uptake
MEASURED PARAMETER: concentration at 6 h (nM)
Number only, in nM; omit the unit.

# input # concentration at 6 h lookup, item CC(=O)N[C@@H](C)CCc1ccc(Oc2ccc(OC(C)C)nc2)cc1
# output 1590

====

# ASSAY TARGET: UniProtKB Q13085
# PROTOCOL: Inhibition of N-terminal His-tagged human recombinant ACC1 expressed in high five insect cells by ATP consumption assay
Examples of molecules with documented pIC50 follow.
Value format note: pIC50 is -log10 of concentration (mol/L); just state the number.

MOLECULE	pIC50
COC(=O)NC(C)CCc1ccc(Oc2ccc(OC(C)C)nc2)cc1 (configuration not stated)	5.92
CC(=O)NCCC[C@H]1OC[C@H](Oc2ccc(OC3CCCC3)cc2)CO1	5.41
CC(=O)N[C@@H](C)CCc1ccc(Oc2ccc(OCc3ccccc3)cn2)cc1	6.04
CC(=O)N[C@@H](C)CO[C@H]1CC[C@H](Oc2ccc(OC(C)C)nc2)CC1	5.64
CC(=O)NC(C)CCc1ccc(Oc2ccc(OCc3ccccc3)nc2)cc1 (configuration not stated)	5.96

# input # pIC50 lookup, item CC(=O)NC(C)CCc1ccc(Oc2ccc(OCc3ccccc3)cn2)cc1 (configuration not stated)
# output 6.12

# input Same question, CC(=O)NCCCC1OCC(Cc2cccc(OCCC3CCCC3)c2)CO1 (configuration not stated) this time
# output 5.57

# input Same question, CC(CCc1ccc(Oc2ccc(OC(C)C)nc2)cc1)NC(=O)C1CC1 (configuration not stated) this time
# output 6.21

# input Same question, CC(=O)NCCCC1OCC(Cc2cccc(OCC3CCC3)c2)CO1 (configuration not stated) this time
# output 4.68

# input Same question, O=C(c1c2ccccc2cc2ccccc12)N1CCC(N2CCC[C@@H](C(=O)N3CCOCC3)C2)CC1 this time
# output 6.04

====

# ASSAY TARGET: Acetyl-CoA carboxylase 1 (Homo sapiens, UniProt Q13085)
# PROTOCOL: Inhibition of N-terminal His-tagged human recombinant ACC1 expressed in high five insect cells by ATP consumption assay
MEASURED PARAMETER: IC50 (nM)
Number only, in nM; omit the unit.

// below: answered molecules
MOLECULE	UNITS SYMBOL	IC50
CC(=O)NC(C)CCc1ccc(Oc2cnc(OC(C)C)nc2)cc1 (stereo unspecified)	nM	3000
CC(=O)NCCC[C@H]1OC[C@H](Oc2ccc(OCc3ccccc3)cn2)CO1	nM	14600
CC(=O)N[C@@H](C)CCc1ccc(Oc2ccc(OC(C)C)cn2)cc1	nM	1800
CC(=O)NC(C)CCc1ccc(Oc2ccc(OC(C)C)nn2)cc1 (stereo unspecified)	nM	12700
CC(=O)N[C@@H](C)CC[C@H]1CC[C@H](Oc2ccc(OC(C)C)nc2)CC1	nM	140
CC(=O)NC(C)CCc1ccc(Oc2ccc(OC(C)C)cn2)cc1 (stereo unspecified)	nM	1780

# input # IC50 lookup, item CC(=O)NC(C)CCc1ccc(Oc2ccc(OC3CCCC3)cn2)cc1 (stereo unspecified)
# output 1100

# input Same question, CC(CCc1ccc(Oc2ccc(OC(C)C)nc2)cc1)NC=O (stereo unspecified) this time
# output 5700

# input Same question, CC(C)Oc1ccc(Oc2ccc(CC[C@H](C)NC(=O)C3CC3)cc2)cn1 this time
# output 360

# input Same question, CC(=O)N[C@H](C)CCc1ccc(Oc2ccc(OC(C)C)nc2)cc1 this time
# output 9900

# input Same question, CC(CCc1ccc(Oc2ccc(OC(C)C)nc2)cc1)NC(N)=O (stereo unspecified) this time
# output 1200

====

# ASSAY TARGET: Acetyl-CoA carboxylase 2 (Homo sapiens)
# Sequence (O00763 whole entry): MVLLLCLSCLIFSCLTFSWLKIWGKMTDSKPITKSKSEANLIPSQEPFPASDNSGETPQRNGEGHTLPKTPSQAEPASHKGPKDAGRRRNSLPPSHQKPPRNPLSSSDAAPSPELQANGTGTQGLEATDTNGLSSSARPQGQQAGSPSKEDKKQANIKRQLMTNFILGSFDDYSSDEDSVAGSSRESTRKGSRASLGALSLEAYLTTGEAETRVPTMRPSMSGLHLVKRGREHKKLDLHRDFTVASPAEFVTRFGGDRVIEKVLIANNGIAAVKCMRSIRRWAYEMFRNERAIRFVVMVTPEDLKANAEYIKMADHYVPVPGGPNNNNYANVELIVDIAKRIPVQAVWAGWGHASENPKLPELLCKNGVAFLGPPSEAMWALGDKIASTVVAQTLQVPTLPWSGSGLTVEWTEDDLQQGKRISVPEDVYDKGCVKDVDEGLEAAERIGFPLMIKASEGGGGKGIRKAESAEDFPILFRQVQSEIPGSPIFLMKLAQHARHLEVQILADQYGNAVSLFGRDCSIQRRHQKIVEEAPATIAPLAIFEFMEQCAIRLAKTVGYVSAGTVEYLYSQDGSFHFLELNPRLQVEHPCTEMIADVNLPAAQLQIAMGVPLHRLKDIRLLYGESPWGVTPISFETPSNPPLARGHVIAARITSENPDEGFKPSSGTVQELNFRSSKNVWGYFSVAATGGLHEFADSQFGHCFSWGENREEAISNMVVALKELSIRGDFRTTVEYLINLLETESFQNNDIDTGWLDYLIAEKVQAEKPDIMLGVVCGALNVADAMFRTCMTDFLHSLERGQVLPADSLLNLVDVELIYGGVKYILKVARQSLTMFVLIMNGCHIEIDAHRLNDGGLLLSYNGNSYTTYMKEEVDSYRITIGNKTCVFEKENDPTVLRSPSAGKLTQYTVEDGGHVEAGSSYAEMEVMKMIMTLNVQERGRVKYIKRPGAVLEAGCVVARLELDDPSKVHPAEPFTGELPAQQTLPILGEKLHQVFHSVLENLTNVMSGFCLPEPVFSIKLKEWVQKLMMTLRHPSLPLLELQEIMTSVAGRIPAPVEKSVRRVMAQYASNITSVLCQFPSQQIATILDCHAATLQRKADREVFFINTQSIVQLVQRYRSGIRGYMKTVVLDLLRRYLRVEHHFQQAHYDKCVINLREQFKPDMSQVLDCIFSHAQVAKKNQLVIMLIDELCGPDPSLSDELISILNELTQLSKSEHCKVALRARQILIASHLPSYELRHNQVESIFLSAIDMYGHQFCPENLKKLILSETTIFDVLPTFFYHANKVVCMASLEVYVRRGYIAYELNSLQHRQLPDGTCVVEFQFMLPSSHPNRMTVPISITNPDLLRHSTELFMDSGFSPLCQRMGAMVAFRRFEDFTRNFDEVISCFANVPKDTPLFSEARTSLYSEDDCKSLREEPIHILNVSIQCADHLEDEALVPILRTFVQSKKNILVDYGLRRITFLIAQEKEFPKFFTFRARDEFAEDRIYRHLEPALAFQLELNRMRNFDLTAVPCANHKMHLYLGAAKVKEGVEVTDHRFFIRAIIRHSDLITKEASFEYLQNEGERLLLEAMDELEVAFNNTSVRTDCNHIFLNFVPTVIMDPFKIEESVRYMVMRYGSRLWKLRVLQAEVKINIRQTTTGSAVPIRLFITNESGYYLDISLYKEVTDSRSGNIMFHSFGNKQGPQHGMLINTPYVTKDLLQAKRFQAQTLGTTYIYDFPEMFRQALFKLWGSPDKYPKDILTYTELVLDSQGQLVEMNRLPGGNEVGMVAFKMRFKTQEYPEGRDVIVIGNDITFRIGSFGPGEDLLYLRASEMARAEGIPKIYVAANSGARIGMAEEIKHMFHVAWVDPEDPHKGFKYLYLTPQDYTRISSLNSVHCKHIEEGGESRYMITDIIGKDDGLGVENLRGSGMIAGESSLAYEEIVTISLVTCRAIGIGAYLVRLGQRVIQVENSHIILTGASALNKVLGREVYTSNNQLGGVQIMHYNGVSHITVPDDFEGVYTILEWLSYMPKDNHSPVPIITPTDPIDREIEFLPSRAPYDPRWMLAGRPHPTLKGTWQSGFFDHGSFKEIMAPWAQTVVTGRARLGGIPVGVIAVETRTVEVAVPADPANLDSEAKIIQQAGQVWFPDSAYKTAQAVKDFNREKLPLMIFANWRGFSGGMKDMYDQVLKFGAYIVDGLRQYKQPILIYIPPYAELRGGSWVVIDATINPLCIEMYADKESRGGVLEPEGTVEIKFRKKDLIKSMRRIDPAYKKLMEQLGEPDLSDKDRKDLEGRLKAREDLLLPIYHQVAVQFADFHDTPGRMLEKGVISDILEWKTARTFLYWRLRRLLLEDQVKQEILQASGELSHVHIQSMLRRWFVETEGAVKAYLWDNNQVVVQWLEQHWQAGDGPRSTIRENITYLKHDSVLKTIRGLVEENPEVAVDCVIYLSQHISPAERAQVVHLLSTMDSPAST
# PROTOCOL: Inhibition of N-terminal His-tagged human recombinant ACC2 expressed in high five insect cells by ATP consumption assay
MEASURED PARAMETER: IC50

// below: answered molecules
MOLECULE	MEASURED
CC(=O)N[C@@H](C)CO[C@H]1CC[C@H](Oc2ccc(OC(C)C)nc2)CC1	60 nM
O=C(c1c2ccccc2cc2ccccc12)N1CCC(N2CCC[C@@H](C(=O)N3CCOCC3)C2)CC1	70 nM
CC(=O)N[C@@H](C)C#Cc1cnc(Oc2ccc(OC(C)C)cc2)s1	60 nM
CC(C)Oc1ccc(Oc2ccc(CC[C@H](C)NC(=O)C3CC3)cc2)cn1	80 nM
CC(=O)NCCC[C@H]1OC[C@H](Oc2ccc(OCc3ccccc3)cn2)CO1	70 nM
CC(=O)N[C@H](C)CCc1ccc(Oc2ccc(OCc3ccccc3)cn2)cc1	> 30000 nM
CC(=O)N[C@H](C)CCc1ccc(Oc2ccc(OC(C)C)nc2)cc1	7800 nM
CC(=O)NCCC[C@H]1OC[C@H](Oc2ccc(OC3CCCC3)cc2)CO1	190 nM

# input # IC50 lookup, item CC(=O)NC(C)CCc1ccc(OC2=NCC(OC(C)C)N=C2)cc1 (stereo not drawn)
# output 1200 nM

# input Same question, COC(=O)NC(C)CCc1ccc(Oc2ccc(OC(C)C)nc2)cc1 (stereo not drawn) this time
# output 250 nM

# input Same question, CC(=O)NCCCC1OCC(c2cccc3cc(OC4CCCC4)ccc23)CO1 (stereo not drawn) this time
# output 630 nM

# input Same question, CC(=O)NCCCC1OCC(Cc2cccc(OCC3CCC3)c2)CO1 (stereo not drawn) this time
# output 700 nM

# input Same question, CC(=O)NCCCC1OCC(Cc2cccc(OCCC3CCCC3)c2)CO1 (stereo not drawn) this time
# output 270 nM

# input Same question, CC(=O)NC(C)CCc1ccc(Oc2ccc(OC(C)C)nn2)cc1 (stereo not drawn) this time
# output 6700 nM

# input Same question, CC(=O)NCCC[C@H]1OC[C@@H](Oc2ccc(OCc3ccccc3)cc2)CO1 this time
# output > 30000 nM

# input Same question, CC(=O)NC(C)CCc1ccc(Oc2ccc(OCc3ccccc3)cn2)cc1 (stereo not drawn) this time
# output 210 nM

# input Same question, CC(=O)NC(C)CCc1ccc(Oc2ccc(OCc3ccccc3)nc2)cc1 (stereo not drawn) this time
# output 80 nM

# input Same question, CC(=O)N[C@@H](C)CC[C@H]1CC[C@H](Oc2ccc(OC(C)C)nc2)CC1 this time
# output 15 nM

# input Same question, CC(CCc1ccc(Oc2ccc(OC(C)C)nc2)cc1)NC(=O)C1CC1 (stereo not drawn) this time
# output 190 nM

# input Same question, CC(=O)NC(C)CCc1ccc(Oc2cnc(OC(C)C)nc2)cc1 (stereo not drawn) this time
# output 700 nM

# input Same question, CC(=O)NCCCC1OCC(Cc2cccc(OCCC3CC3)c2)CO1 (stereo not drawn) this time
# output 2650 nM

# input Same question, CC(=O)NCCCC1OCC(Cc2cccc(OCCc3ccccc3)c2)CO1 (stereo not drawn) this time
# output 2100 nM

# input Same question, CC(=O)NCCCc1ccc(Oc2ccc(OC3CCCC3)cn2)cc1 this time
# output 1280 nM
